Test system: Zika virus NS2B-NS3 protease
ASSAY_REMARKS: Primary screen GU AMC qHTS for Zika virus inhibitors (AID 1347154);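 note: 0% = no-inhibitor control and -100% = no-enzyme control; nearly all actives have a fitted effect of over 70% in size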
COND: Zika NS2B-NS3 unlinked protease, AMC fluorogenic substrate; series mostly up to 54.1 µM
Results filed as inconclusive are left out. Calls of active or inactive are those of the source. Calls come from the whole dose curve; as a rule, active = well fitted inhibition curve with a large enough effect; inconclusive = small, poorly fitted or top-dose-only effect; inactive = flat fitted curve, though single readings scatter.
ASSAY_READOUT: activity change, negative = inhibition

compound=N[C@@H](Cn1ccc(=O)n(Cc2ccccc2C(=O)O)c1=O)C(=O)O result_value=inactive
compound="CC(N)(COP(=O)(O)O)C(=O)O (stereo not drawn)" result_value=inactive
compound=O=C(O)c1cc(=O)c2ccc(Cl)cc2[nH]1 result_value=inactive
compound="CCCCCCOC(=O)C1(O)CC2OC1(C)n1c3ccccc3c3c4c(c5c6ccccc6n2c5c31)C(=O)NC4 (stereo not drawn)" result_value="19.5% [at 4.99 µM] (inactive)"
compound="CC(N)CCCP(=O)(O)O (stereo not drawn)" result_value=inactive

Record `N=C(N)SCCc1ccc(OCc2ccc([N+](=O)[O-])cc2)cc1` . Reported activity change, negative = inhibition: inactive

Record `CCCCCCCCCC(=O)O[C@H](CC(=O)O)C[N+](C)(C)C` . Reported activity change, negative = inhibition: inactive

Record `Cc1nc(N=Nc2cc(S(=O)(=O)O)ccc2S(=O)(=O)O)c(COP(=O)(O)O)c(C=O)c1O` . Reported activity change, negative = inhibition: inactive

---

ASSAY_REMARKS: qHTS for differential inhibitors of proliferation of Plasmodium falciparum line GB4 (AID 1816);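 note: parasite growth measured after 72 h incubation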
COND: Plasmodium falciparum GB4 proliferation inhibition; series mostly up to 28.7 µM
Inconclusive results are not listed. Activity calls are given as the source filed them. Calls follow the shape of the dose curve; as a rule, active = well fitted curve in the direction sought with a large enough effect; inconclusive = small, poorly fitted or top-dose-only effect, or another doubt; inactive = no such curve, though single readings can be large or run the other way.
Write down the outcome that applies. Available outcomes: yes for active, no for inactive

Prompt: Call for entry `FC(F)(F)c1cc(CO[C@H]2CCCN[C@H]2c2ccccc2)cc(C(F)(F)F)c1` :
Completion: yes

Prompt: Call for entry `Cc1cccc(/C=C/c2ccccc2)n1` :
Completion: no

Prompt: Call for entry `Cn1cnc2c(NC3CCCC3)ncnc21` :
Completion: no

Prompt: Call for entry `N#C/C(=C\c1ccc(O)c(O)c1)C(=O)Nc1ccccc1` :
Completion: yes

Prompt: Call for entry `O=Nc1c(-c2c(O)[nH]c3ccccc23)[nH]c2ccccc12` :
Completion: yes

Prompt: Call for entry `O=S(=O)(NCCNC/C=C/c1ccc(Br)cc1)c1cccc2cnccc12` :
Completion: yes

Prompt: Call for entry `CCCCCCCCCCCCC/C=C/[C@@H](O)[C@@H](N)CO` :
Completion: no

Prompt: Call for entry `CCCn1c(=O)c2[nH]c(-c3ccc(OCC(=O)Nc4ccc(C#N)cc4)cc3)nc2n(CCC)c1=O` :
Completion: no

Prompt: Call for entry `COC(=O)c1c(-c2cc(OC)c(OC)c(OC)c2)c2ccnc(OCc3ncccn3)c2c(=O)n1Cc1ccnc(C)c1` :
Completion: yes

Prompt: Call for entry `COc1ccccc1NC(=O)Nc1nc(-c2cccnc2)nc2ccccc12` :
Completion: no

Prompt: Call for entry C/C=C1\C(=O)CC2C3CCC4=CC(=O)CC[C@]4(C)C3CC[C@]12C (some centres undefined) :
Completion: yes

Prompt: Call for entry `O=C(O)c1cc(=O)c2ccc(Cl)cc2[nH]1` :
Completion: no

Prompt: Call for entry `C[N+](C)(C)CCC(=O)c1cccc2ccccc12` :
Completion: no

Prompt: Call for entry `COc1cc2c(cc1C(F)(F)F)N(C(=O)Nc1cc(F)cc(-c3cccnc3)c1)CC2` :
Completion: yes

---

ASSAY_REMARKS: qHTS for Inhibitors of Plasmodium falciparum (GB4) proliferation (AID 504315);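 note: 0% = DMSO vehicle and -100% = 0.29 µM artemisinin control; nearly all actives have a fitted effect of over 50% in size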
COND: P. falciparum GB4 in erythrocytes, SYBR Green DNA, 72 h; series mostly up to 6.7 µM
Inconclusive results are not listed. The source made the active and inactive calls. The call rests on the fitted dose curve; in most records, active means well fitted inhibition curve with a large enough effect; inconclusive means small, poorly fitted or top-dose-only effect, or effect the other way; inactive means flat fitted curve, though single readings scatter.
ASSAY_READOUT: outcome

Below, each entry is followed by its recorded outcome result.
molecule=COc1ccc(OC[C@H]2CN3[C@H](c4ccc(Br)cc4)[C@H](C)CC[C@H]3C(=O)O2)cc1 result_value=inactive
molecule=COCCN1C(=O)CC[C@@]23C1=NC(C(=O)OC)=C(C(=O)OC)[C@@H]2N(CC=C(C)C)c1ccccc13 result_value=inactive
molecule=Cc1cc2c(c(=O)o1)[C@H]1O[C@](c3ccsc3)(Cc3c1ccc1ccccc31)O2 result_value=inactive
molecule=CC(=O)OC[C@H]1O[C@H](CCON=C[C@@H](C)[C@H](OCc2ccccc2)C(C)C)C=C[C@@H]1OC(C)=O result_value=inactive
molecule=CC(C)CON=C1C[C@@H](O)[C@@H](O)[C@@H]2[C@H]3C(=O)N(Cc4ccc5c(c4)OCO5)C(=O)[C@@H]3CC[C@H]12 result_value=inactive

Record C=CC[C@@H]1C=CC(ON=C(C)CCC(=O)OC[C@H]2O[C@H](C#Cc3ccccc3)C=C[C@H]2Oc2ccc(C)cc2)[C@H](CO)O1 (some centres undefined) . Reported outcome: inactive

Record CCOC(=O)C(c1ccc(OC)c(OC)c1)C1c2ccccc2C=C(C)N1C(=O)OC (centres undefined) . Reported outcome: inactive

Record `COC(=O)N1[C@H]2CC[C@@]3(C)C=C(C)O[C@]1(C)C3c1ccccc12` . Reported outcome: inactive

---

ASSAY_REMARKS: Primary qHTS for inhibitors of nuclear receptor binding SET domain protein 2 (NSD2) in an RCH-ACV wild type WT cells (2C) (AID 1645877); note: nearly all actives have a fitted effect of over 70% in size
COND: RCH-ACV (leukaemia line) NSD2 WT (2C) viability, CellTiter-Glo, 72 h; series mostly up to 44.9 µM
Inconclusive results are not listed. Calls of active or inactive are those of the source. Calls come from the whole dose curve; as a rule, active = well fitted inhibition curve with a large enough effect; inconclusive = small, poorly fitted or top-dose-only effect; inactive = no such curve, though single readings can be large or run the other way.
Write down the outcome that applies. Available outcomes: YES = active, NO = inactive

Prompt: Call for entry `COc1ccc2nc3ccc(OC)cc3c(SCCCN)c2c1` :
Completion: NO

Prompt: Call for entry `Cc1cc(-c2nc(C(=O)Nc3cn(C4CCOCC4)nc3C(N)=O)co2)ccn1` :
Completion: YES

Prompt: Call for entry `Cc1cc(Nc2nn(-c3ccccc3)c(=O)c3ccccc23)n[nH]1` :
Completion: YES

Prompt: Call for entry `Cc1ccc(CCCO)c(NCc2ccc3nc(NCCCN4CCOCC4)n(Cc4nc(C)ccc4O)c3c2)c1` :
Completion: YES

Prompt: Call for entry `COc1cc(O)c2c(=O)c(O)c(-c3ccc(O)c(O)c3)oc2c1` :
Completion: YES

Prompt: Call for entry `COc1ccc2c(c1)C[C@H](C(=O)Nc1ccc(-c3cn[nH]c3)cc1OCCN(C)C)CO2` :
Completion: YES

Prompt: Call for entry `CN[C@H]1CCN(C(=O)c2ccc(Nc3ncc(F)c(-c4cnc(C)n4C(C)C)n3)cc2)C1` :
Completion: YES

Prompt: Call for entry `CCCCCCCCCCCCCC#CC(=O)[C@@H]1COC(C)(C)N1C(=O)OC(C)(C)C` :
Completion: YES

Prompt: Call for entry C=CCN(/C=C1\C(=O)OC(COC)C2(C)C1=C(O)C(=O)C1=C2C(OC(C)=O)CC2(C)C(=O)CCC12)CC=C (centres undefined) :
Completion: YES

Prompt: Call for entry CC1(C)SC2C(NC(=O)[C@H](C(=O)O)c3ccsc3)C(=O)N2C1C(=O)O (some centres undefined) :
Completion: NO

Prompt: Call for entry `C#Cc1cccc(Nc2ncnc3cc4c(cc23)OCCOCCOCCO4)c1` :
Completion: NO

Prompt: Call for entry C=C1C(=O)O[C@@H]2C[C@@H](C)[C@]34C[C@]5(C(=O)O[C@H]6CC(C)=C([C@H](C)CCCO)[C@H](OC(=O)C(C)CC)[C@H]65)[C@@H](C(C)=C3C[C@@H]12)[C@H]4OC(C)=O (some centres undefined) :
Completion: YES

Prompt: Call for entry CC(=O)[C@H]1CCC2C3CCC4=CC(=O)CC[C@]4(C)C3[C@H](O)C[C@@]21C (some centres undefined) :
Completion: NO

Prompt: Call for entry `COc1ccccc1NC(=O)Nc1ccc2ccccc2c1` :
Completion: YES

Prompt: Call for entry `CCN1CCC[C@@H]1CNC(=O)c1ccc2c(c1)NC(=O)/C(=C/c1ccccc1F)S2` :
Completion: YES

Prompt: Call for entry `CN(C)CCCNc1nc(CN2CCN(C(c3ccc(Cl)cc3)c3ccc(Cl)cc3)CC2)nc2ccccc12` :
Completion: YES

Prompt: Call for entry `COc1cc(OC)c(/C=C2\C(=O)Nc3ccccc32)c(OC)c1` :
Completion: YES

Prompt: Call for entry `CC(=O)Nc1ccc(C(=O)NC(C)(C)C)cc1` :
Completion: NO

Prompt: Call for entry `O=S(=O)(NCCNC/C=C/c1ccc(Br)cc1)c1cccc2cnccc12` :
Completion: YES

---

ASSAY_REMARKS: qHTS for Inhibitors of Plasmodium falciparum (7G8) proliferation (AID 504316); note: nearly all actives have a fitted effect of over 65% in size; note: potency is the fitted concentration of half-maximal effect
COND: P. falciparum 7G8 in erythrocytes, SYBR Green DNA, 72 h; series mostly up to 6.7 µM
Records with an inconclusive call do not appear. Activity calls are given as the source filed them. The call rests on the fitted dose curve; in most records, active means well fitted inhibition curve with a large enough effect; inconclusive means small, poorly fitted or top-dose-only effect; inactive means flat fitted curve, though single readings scatter.
ASSAY_READOUT: Potency

Below, each entry is followed by its recorded Potency result.
molecule=COC(=O)N[C@H](c1ccccc1)C(C(=O)OC)C(=O)OC result_value="1900 nM (active)"
molecule=C[C@@H]1C=CCCO[C@]12C(=O)N(CC1CC1)c1cccc(Br)c12 result_value=inactive
molecule=COc1cc2c(cc1OC)[C@@H]1O[C@](CCCCN3C(=O)c4ccccc4C3=O)(C2)Oc2cc(C)n(Cc3ccccc3)c(=O)c21 result_value="1510 nM (active)"
molecule=COC(=O)N[C@H](C(C(=O)OC)=C(C)NCc1ccccc1)c1cccs1 result_value=inactive

# ---- query molecule ----
Record CCCCS(=O)(=O)N1C2=NC3=C(C(=O)N(CCOC)C3=O)C3N(C)c4ccccc4[C@]23C[C@H]1CO (stereo not given in full) . Reported Potency: inactive
